# EXPERIMENTAL_TARGET: T1, Suc-AAPM-pNA
# T1 chain: AAPM
# PARTICULARS: scale: relative to the substrate with the highest activity
Each entry below lists one item and its recorded relative activity (initial increase in OD405) value.
I'd appreciate a reply containing only the number, no unit.

Here is how some proteins turned out for relative activity (initial increase in OD405).
PROTEIN	REPORTED_RESULT
Glutamyl endopeptidase II sprE from Streptomyces griseus (protein) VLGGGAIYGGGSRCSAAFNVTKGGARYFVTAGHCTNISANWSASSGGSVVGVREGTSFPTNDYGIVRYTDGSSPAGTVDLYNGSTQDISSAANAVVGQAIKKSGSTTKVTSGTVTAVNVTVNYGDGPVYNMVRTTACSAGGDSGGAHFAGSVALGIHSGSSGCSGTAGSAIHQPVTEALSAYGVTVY	0.0001
Lysyl endopeptidase from Achromobacter lyticus (protein) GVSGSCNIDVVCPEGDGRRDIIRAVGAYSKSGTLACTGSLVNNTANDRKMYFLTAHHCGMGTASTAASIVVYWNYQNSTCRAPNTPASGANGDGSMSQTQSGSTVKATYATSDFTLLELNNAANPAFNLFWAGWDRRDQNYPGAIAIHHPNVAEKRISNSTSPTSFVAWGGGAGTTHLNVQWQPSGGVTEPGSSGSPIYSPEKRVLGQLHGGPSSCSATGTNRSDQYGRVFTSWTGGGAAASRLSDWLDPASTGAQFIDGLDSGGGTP	0
Serine protease bppB from Bacillus pumilus JA16 (protein) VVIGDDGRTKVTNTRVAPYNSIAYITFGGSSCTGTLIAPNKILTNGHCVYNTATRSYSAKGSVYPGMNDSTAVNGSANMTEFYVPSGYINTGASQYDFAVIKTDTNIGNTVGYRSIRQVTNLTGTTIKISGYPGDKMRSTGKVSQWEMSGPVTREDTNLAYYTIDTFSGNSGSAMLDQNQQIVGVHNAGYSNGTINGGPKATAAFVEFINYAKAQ	0
Glutamyl endopeptidase blaSE from Bacillus licheniformis (protein) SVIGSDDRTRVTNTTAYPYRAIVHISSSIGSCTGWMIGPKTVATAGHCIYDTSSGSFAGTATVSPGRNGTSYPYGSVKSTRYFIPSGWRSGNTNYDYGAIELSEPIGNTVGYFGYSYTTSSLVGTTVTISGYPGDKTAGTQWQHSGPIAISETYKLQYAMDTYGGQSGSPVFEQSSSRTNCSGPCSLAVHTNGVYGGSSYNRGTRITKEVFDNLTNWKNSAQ	0.0008
Thermostable alkaline protease BH0855 from Bacillus halodurans (protein) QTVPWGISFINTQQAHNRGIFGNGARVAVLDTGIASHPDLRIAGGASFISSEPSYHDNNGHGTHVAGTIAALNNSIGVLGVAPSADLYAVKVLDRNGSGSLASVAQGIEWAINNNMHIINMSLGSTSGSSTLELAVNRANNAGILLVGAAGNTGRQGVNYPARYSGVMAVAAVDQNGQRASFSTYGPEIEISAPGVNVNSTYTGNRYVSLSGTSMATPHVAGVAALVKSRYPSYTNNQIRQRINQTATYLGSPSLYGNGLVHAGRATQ	0.85

Kindly consider the entry below.
Query: // returns reported relative activity (initial increase in OD405) for input Subtilisin 309 variant from Bacillus clausii (protein) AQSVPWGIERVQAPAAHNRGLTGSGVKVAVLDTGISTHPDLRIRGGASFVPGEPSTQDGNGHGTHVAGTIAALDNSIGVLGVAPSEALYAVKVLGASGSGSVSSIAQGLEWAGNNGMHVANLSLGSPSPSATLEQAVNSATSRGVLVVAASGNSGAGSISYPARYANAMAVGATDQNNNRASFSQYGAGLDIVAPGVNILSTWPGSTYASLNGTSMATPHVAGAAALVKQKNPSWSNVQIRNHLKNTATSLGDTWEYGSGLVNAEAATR
Result: 0.861
